meta.source: patent US4435391A

As shown below, each of these compounds has a reported inhibition in vivo value.
Test system: cholesterol (TC) level of plasma
Assay: Plasma cholesterol (TC) in Triton-injected mice (Experiment 2)
Format: in vivo, mice of ddY strain
Conditions: Mus musculus, iv; Table 2; 150 mg/kg immediately and 8 hours after Triton WR-1399 500 mg/kg i.v.; blood drawn 24 h after Triton; read-out: Percent Reduction TC (x ± S.E.)

{"Compound": "CCOC(=O)c1ccc2c(c1)N=C(CC)c1cc(OC)cc(OC)c1O2 [Compound 16]", "inhibition in vivo [%]": 16.4}
{"Compound": "O=C(O)c1ccc2c(c1)N=Cc1cc(Cl)ccc1O2 [Compound 13]", "inhibition in vivo [%]": 14.5}
{"Compound": "CCCOC(=O)c1ccc2c(c1)N=Cc1cccc(OC)c1O2 [Compound 11]", "inhibition in vivo [%]": 19.2}
{"Compound": "Cc1ccc2c(c1)C=Nc1cc(C(=O)O)ccc1O2 [Compound 15]", "inhibition in vivo [%]": 17.7}
{"Compound": "CCOC(=O)c1ccc2c(c1)N=C(c1cccc(C)c1)c1ccc(OC)cc1O2 [Compound 19]", "inhibition in vivo [%]": 20.1}
{"Compound": "COc1ccc2c(c1)Oc1ccc(C(=O)O)cc1N=C2C [Compound 7]", "inhibition in vivo [%]": 17.3}
{"Compound": "COC(=O)c1ccc2c(c1)N=Cc1cccc(OC)c1O2 [Compound 10]", "inhibition in vivo [%]": 20.7}
{"Compound": "CCCC1=Nc2cc(C(=O)OCC)ccc2Oc2cc(C)ccc21 [Compound 20]", "inhibition in vivo [%]": 16.5}
{"Compound": "CC1=Nc2cc(C(=O)O)ccc2Oc2cc(C)ccc21 [Compound 8]", "inhibition in vivo [%]": 18.6}
{"Compound": "CCOC(=O)c1ccc2c(c1)N=Cc1ccc(C)cc1O2 [Compound 3]", "inhibition in vivo [%]": 17.8}
{"Compound": "CCC1=Nc2cc(C(=O)O)ccc2Oc2cc(OC)ccc21 [Compound 9]", "inhibition in vivo [%]": 17.9}
{"Compound": "CCOc1cccc2c1Oc1ccc(C(=O)O)cc1N=C2 [Compound 14]", "inhibition in vivo [%]": 19.5}
